Parameter: PBM E-score. Scope: all listed entries.
- Assayed system: Hmlalpha2 (UniProt P0CY09)
- Sequence: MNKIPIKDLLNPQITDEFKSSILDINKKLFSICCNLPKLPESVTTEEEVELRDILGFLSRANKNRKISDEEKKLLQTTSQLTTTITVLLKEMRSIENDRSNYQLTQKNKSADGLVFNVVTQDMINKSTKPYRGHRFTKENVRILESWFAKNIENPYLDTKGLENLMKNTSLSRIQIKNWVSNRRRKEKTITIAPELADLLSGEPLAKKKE
- Method description: PBM E-score (8-mer binding enrichment) (E-score (-0.5 to 0.5)); higher = stronger / more preferred TF binding
- Recorded conditions: protein concentration: 200 nM; construct: GST-full length
Over roughly 33,000 sequences, “E-score (-0.5 to 0.5)” has its median near -0.04; the highest 2% begin near 0.36. The list comes from a sample in which the highest values are over-represented; it also holds close analogues and randomly drawn sequences.
Test readout: PBM E-score

1. TCACCGAA
0.0184
2. AGTCTATC
-0.0461
3. AGTGTACA
0.301
4. ACGACATC
0.0415
5. ACAACAGG
0.155
6. TCAACACA
0.43
7. CCAACACC
-0.206
8. CTTTAAAC
0.153
9. CCGGTGCA
-0.247
10. GGGGTGTA
0.0612
11. AGATGGTG
-0.0243
12. AGGAAAAA
0.00347
13. ACACACGG
0.277
14. CGGGCAAC
-0.261
15. GTTTAAAA
0.215
16. ACAACTCA
0.194
17. CAACCACG
0.111
18. GCATGGCC
-0.0405
19. GAGGGAAC
-0.165
20. CGTGTTCC
0.2
21. GACATAGA
0.145
22. CGATCTCA
-0.0804
23. ACAACAAA
0.284
24. CTTAAAAC
0.201
25. AGAAGGCC
-0.213
26. ACTACATC
0.275
27. GGGTAAAC
0.0624
28. ACATGGCG
0.324
29. CACTACTA
0.00081
30. AGTGTTGA
0.238
31. ACGCTCCT
0.0508
32. ACATGGTG
0.414
33. AGTGTGTG
0.127
34. AAAGCGAC
0.0782
35. ATGTAAAG
0.473
36. TCCGCCGA
-0.0873
37. CATGAGGC
-0.166
38. ACAACACT
0.248
39. AGTGTTAC
0.221
40. CGTGTTCA
0.369
41. CCCTGGGC
-0.302
42. AACAGGTG
0.184
43. AGACCACT
-0.00203
44. ACAACACG
0.417
45. AGGGGAGC
-0.33
46. AGGTAAAT
0.24
47. CCATCACA
0.00393
48. ATGCACAC
0.106
49. AAAGAGCT
-0.0941
50. CCTGTTAA
0.288
51. GGTGTGTA
0.423
52. CGTGTGTC
0.2
53. CCTACATA
0.13
54. AAGCACGC
0.0885
55. ATACACCA
0.215
56. AAGTAAAG
0.0486
57. AACTTCAC
0.121
58. CTGTAAAC
0.31
59. GCAACACA
0.167
60. ATCGCTGC
-0.136
61. ATACTCCG
-0.0161
62. CACCTCAC
0.0105
63. CGTTAACG
0.211
64. AACTGCAC
0.0702
65. AGGCCTTC
-0.156
66. AGCAGGCG
0.046
67. AGAGCTCC
-0.252
68. ACGACATA
0.134
69. GTGATCAC
-0.229
70. CTCCAGGC
-0.185
71. ACCCCTAT
-0.208
72. ACACTGTA
0.116
73. ACCGTAGT
-0.225
74. CTCCCATC
-0.242
75. GAATACAA
0.352
76. ACTGTTAA
0.208
77. AGGAAACC
-0.0996
78. TACATAGA
0.427
79. GGTGTGCA
-0.155
80. ACATGGTC
0.308
81. GATACTCA
-0.0664
82. ACTACAGG
0.133
83. CGTGTACA
0.467
